System: Liver
Experiment: Half life in dog liver microsomes
Assay type: ADME, Canis lupus familiaris, microsome
Conditions: microsomes
Let's look at some compounds and their measured t1/2.
Report the figure in min without appending any unit label.

Field: example entries. Status: answers known.
| compound | experimental_endpoint | value_measured |
| --- | --- | --- |
| NC(=O)c1cccc(C2C[C@H]3CC[C@H](C2)N3CC(=O)C2CCCCC2)c1 (relative stereo; 30b) | t1/2 | 9 |
| O=C1c2ccccc2C(=O)N1CCCCN1[C@@H]2CC[C@@H]1CC(c1cccc(O)c1)C2 (relative stereo; 21b) | t1/2 | 12 |
| Oc1cccc(C2C[C@H]3CC[C@H](C2)N3CCCOc2ccccc2)c1 (relative stereo; 19b) | t1/2 | 2 |
| NC(=O)c1cccc(C2C[C@H]3CC[C@H](C2)N3CC(O)Cc2ccccc2)c1 (stereo in doubt; 31b) | t1/2 | 59 |
| CCCCCCCN1[C@@H]2CC[C@@H]1CC(c1cccc(O)c1)C2 (relative stereo; 17a) | t1/2 | 2 |

Challenge: I would be grateful if you could share the reported t1/2 for CCCCCCCN1[C@@H]2CC[C@@H]1CC(c1cccc(C(N)=O)c1)C2 (stereo partly drawn) .
Response given: 2

Challenge: Endpoint output: t1/2 of NC(=O)c1cccc(C2C[C@H]3CC[C@H](C2)N3CCCOc2ccccc2)c1 (stereo partly drawn) . Value?
Response given: 6
